Assay: S6 kinase pathway phospho-S6 level changes – cell-based, A549, cytoblot, luminescence, serum-stimulated, primary screen (AID 1158);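 further: serum-stimulated A549 lung adenocarcinoma cells; signal is phosphorylated S6 detected by cytoblot immunostaining with HRP secondary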
Conditions: 5 h, higher = more signal
reported property: z-score

These recorded examples may help you get a feel for the data.
compound	z-score
[N-]=[N+]=Nc1ccccc1C[C@]1(C(=O)NCc2ccccc2)N=C(c2ccc(OCCCO)cc2)O[C@H]1c1ccccc1N=[N+]=[N-]	0.096
COc1ccc([Si](C)(C)[C@@H]2[C@@H](CC(=O)N3Cc4ccccc4C[C@H]3CO)O[C@]3(C(=O)N(Cc4cccc(N5CCC5=O)c4)c4ccccc43)[C@H]2C)cc1	0.275
[N-]=[N+]=Nc1ccccc1C[C@]1(C(=O)NCC(O)CO)N=C(c2ccc(OCCCO)cc2)O[C@H]1c1ccccc1 (stereo partly drawn)	-0.132

Please look at the items below and tell me z-score for each one, in order.
1. CC(C)[Si](C#C[Si](C(C)C)(C(C)C)C(C)C)(O[C@H](C)c1cn(Cc2ccccc2)nn1)C(C)C
2. CCOC(=O)C1=CCC(c2ccc(F)cc2)N(S(=O)(=O)c2ccc(C)cc2)C1 (stereo not drawn)
3. CN(C)CCCCNC(=O)[C@@H]1C[C@@H]2C(=O)N[C@@H](CCCCN)C(=O)N2[C@@H]1c1ccc(O)cc1
4. CCOC(=O)C1=CC[C@H]2C(=O)N(c3ccccc3)C(=O)[C@@H]12

Ans.
1. -0.217
2. -0.566
3. 0.297
4. -0.743

Recorded z-score (compound NC(=O)N1C(=O)C2C(C1=O)C1C=C(CCCO)C2C(C2CC2)N1Cc1cc2c(cc1Br)OCO2 (stereo not drawn) ): 0.415
